As shown below, each of these molecules has a reported IC50 value.
Molecular target: GCS in WT-MDCKII cells (Canis lupus familiaris, UniProt A0A8I3MXG6)
Sequence (A0A8I3MXG6 1-394): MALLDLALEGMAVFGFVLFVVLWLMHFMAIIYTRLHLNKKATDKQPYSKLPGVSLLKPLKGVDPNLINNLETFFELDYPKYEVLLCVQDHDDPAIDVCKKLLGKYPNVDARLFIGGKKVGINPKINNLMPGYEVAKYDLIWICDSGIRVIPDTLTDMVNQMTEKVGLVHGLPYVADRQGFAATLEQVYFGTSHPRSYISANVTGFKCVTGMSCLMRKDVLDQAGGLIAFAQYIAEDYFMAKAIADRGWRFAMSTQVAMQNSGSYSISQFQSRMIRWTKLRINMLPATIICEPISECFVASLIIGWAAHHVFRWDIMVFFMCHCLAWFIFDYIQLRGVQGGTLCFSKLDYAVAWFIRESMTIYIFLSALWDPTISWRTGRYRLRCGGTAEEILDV
Experiment: Inhibition of GlcCer production in whole wild-type MDCKII cells
Conditions: 24 hours, read-out: WT-MDCK IC50
Provide the measurement as a number trailed by its unit.

Some molecules with recorded IC50:
Molecule	IC50
COc1ccccc1[C@@H](O)[C@@H](CN1CCCC1)NC(=O)CC1Cc2ccccc2C1 [Example 4]	5 nM
O=C(CC1Cc2ccccc2C1)N[C@H](CN1CCCC1)[C@H](O)c1ccc(OCC2CC2)cc1 [Example 11]	1 nM
O=C(CC1Cc2ccccc2C1)N[C@H](CN1CC[C@@H](F)C1)[C@H](O)c1ccc(OC(F)(F)F)cc1 [Example 16]	23 nM
O=C(CC1Cc2ccccc2C1)N[C@H](CN1CCCC1)[C@H](O)c1ccc2c(c1)OCCO2 [control]	15 nM

Consider the additional molecule presented here.
I'd like to know its IC50. The molecule in question is O=C(CC1Cc2ccccc2C1)N[C@H](CN1CCCC1)[C@H](O)c1cccc(OC(F)(F)F)c1 [Example 14]
50 nM
